- System Tested: native mouse MET on living mouse cells (mouse, UniProt P16056 25-1379)
- Protocol Text: cell-based or functional assay
Quantity Measured: cell scattering score, MLP29, 0.333 nM
Entry format: amount then unit.

Observe how each entry below is paired with its result.
• chimeric llama-human IgG1 mAb 72F8 (antibody, V domains shown) VH: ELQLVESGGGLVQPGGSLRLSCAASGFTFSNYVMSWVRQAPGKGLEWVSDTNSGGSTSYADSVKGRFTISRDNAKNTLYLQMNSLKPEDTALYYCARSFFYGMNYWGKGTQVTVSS VL: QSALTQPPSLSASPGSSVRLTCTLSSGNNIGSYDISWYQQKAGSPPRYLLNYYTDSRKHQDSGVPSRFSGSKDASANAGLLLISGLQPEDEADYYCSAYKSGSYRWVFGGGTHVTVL = 0 score 0-4
• chimeric llama-human IgG1 mAb 71G12 (antibody, V domains shown) VH: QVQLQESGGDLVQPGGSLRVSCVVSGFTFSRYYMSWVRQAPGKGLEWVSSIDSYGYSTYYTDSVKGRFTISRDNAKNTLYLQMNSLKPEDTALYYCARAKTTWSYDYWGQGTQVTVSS VL: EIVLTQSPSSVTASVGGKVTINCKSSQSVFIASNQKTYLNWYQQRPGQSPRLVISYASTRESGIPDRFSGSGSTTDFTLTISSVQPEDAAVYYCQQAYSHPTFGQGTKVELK = 1 score 0-4

Exercise: Please supply the value of reported cell scattering score, MLP29, 0.333 nM for the item chimeric llama-human IgG1 mAb 71A3 (antibody, V domains shown) VH: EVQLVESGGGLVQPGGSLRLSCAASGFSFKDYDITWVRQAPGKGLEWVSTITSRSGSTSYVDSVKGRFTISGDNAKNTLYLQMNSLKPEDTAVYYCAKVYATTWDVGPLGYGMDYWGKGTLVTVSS VL: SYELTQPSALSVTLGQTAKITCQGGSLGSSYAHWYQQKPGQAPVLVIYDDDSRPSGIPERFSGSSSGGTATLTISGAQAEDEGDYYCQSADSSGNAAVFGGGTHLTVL
Key: 4 score 0-4
